System: 2Sp-muMax20 (muMax20 with two 2,6-bis(methyl)pyridine Cys staples)
Assay: PBM 8-mer E-score (E-score (rank enrichment, -0.5 to 0.5)); higher = stronger preferential binding
Whole data set: some 33,000 sequences, median “E-score (rank enrichment, -0.5 to 0.5)” near -0.0043, cut for the highest 2% near 0.24. This is one part of a sample in which the highest values are shown more often than they occur.
Class met: PBM 8-mer E-score at least 0.05. Class not met: PBM 8-mer E-score below 0.05.

Solved cases (2 shown):
SEQUENCE	ANSWER LABEL
CCGTGCTC	not met
TAAGACGA	met

Data request: Evaluate `CAAAGCGC` : PBM 8-mer E-score at minimum 0.05?
Data returned: not met

Data request: Evaluate `AAAAAGCA` : PBM 8-mer E-score at minimum 0.05?
Data returned: met

Data request: Evaluate `CCATTGTA` : PBM 8-mer E-score at minimum 0.05?
Data returned: met

Data request: Evaluate `AAAAGCGC` : PBM 8-mer E-score at minimum 0.05?
Data returned: met

Data request: Evaluate `CATGTTTA` : PBM 8-mer E-score at minimum 0.05?
Data returned: met

----------
Test system: 2Sp-muMax20 (muMax20 with two 2,6-bis(methyl)pyridine Cys staples)
Test: PBM 8-mer E-score (E-score (rank enrichment, -0.5 to 0.5)); higher = stronger preferential binding
In all, about 33,000 sequences were measured (“E-score (rank enrichment, -0.5 to 0.5)”: median about -0.0043, highest 2% from about 0.24 on). This excerpt belongs to a sample that is enriched for the highest values.
# PBM 8-mer E-score listing for each entry below
// no unit, no text: just the number

SEQUENCE	PBM 8-mer E-score
AAGGCCGC	-0.0467
GTAAGTTA	0.0283

Data request: What measured PBM 8-mer E-score is associated with `ATAAAAAG` on 2Sp-muMax20 (muMax20 with two 2,6-bis(methyl)pyridine Cys staples)?
Data returned: 0.315

Data request: What measured PBM 8-mer E-score is associated with `AGCACGTC` on 2Sp-muMax20 (muMax20 with two 2,6-bis(methyl)pyridine Cys staples)?
Data returned: -0.0658

Data request: What measured PBM 8-mer E-score is associated with `CCCACGCG` on 2Sp-muMax20 (muMax20 with two 2,6-bis(methyl)pyridine Cys staples)?
Data returned: 0.231

Data request: What measured PBM 8-mer E-score is associated with `GCCAGAGC` on 2Sp-muMax20 (muMax20 with two 2,6-bis(methyl)pyridine Cys staples)?
Data returned: -0.206

----------
System: 2Sp-muMax20 (muMax20 with two 2,6-bis(methyl)pyridine Cys staples)
Assay: PBM 8-mer E-score (E-score (rank enrichment, -0.5 to 0.5)); higher = stronger preferential binding
The full ranking holds about 33,000 sequences; the median of “E-score (rank enrichment, -0.5 to 0.5)” is about -0.0043, and the highest 2% start at about 0.24. This is one part of a sample in which the highest values are shown more often than they occur.
MEASUREMENT NAME: PBM 8-mer E-score
// no unit, no text: just the number

The examples below pair each entry with its known result.
SEQUENCE	PBM 8-mer E-score
ACCATGTC	0.0986
CCGAAGCC	-0.258
TGAACGAA	0.0338
AGGTGTCG	-0.0243
CAGTGCGG	-0.189

Data request: What measured PBM 8-mer E-score is associated with `CGACCATC` on 2Sp-muMax20 (muMax20 with two 2,6-bis(methyl)pyridine Cys staples)?
Data returned: -0.0509

Data request: What measured PBM 8-mer E-score is associated with `ACCATGTG` on 2Sp-muMax20 (muMax20 with two 2,6-bis(methyl)pyridine Cys staples)?
Data returned: 0.262

Data request: What measured PBM 8-mer E-score is associated with `AACATGCG` on 2Sp-muMax20 (muMax20 with two 2,6-bis(methyl)pyridine Cys staples)?
Data returned: 0.253

Data request: What measured PBM 8-mer E-score is associated with `AACATGCT` on 2Sp-muMax20 (muMax20 with two 2,6-bis(methyl)pyridine Cys staples)?
Data returned: 0.126

Data request: What measured PBM 8-mer E-score is associated with `AAAACATT` on 2Sp-muMax20 (muMax20 with two 2,6-bis(methyl)pyridine Cys staples)?
Data returned: 0.0666

Data request: What measured PBM 8-mer E-score is associated with `ATTGCATC` on 2Sp-muMax20 (muMax20 with two 2,6-bis(methyl)pyridine Cys staples)?
Data returned: 0.134

Data request: What measured PBM 8-mer E-score is associated with `ATGCAGTA` on 2Sp-muMax20 (muMax20 with two 2,6-bis(methyl)pyridine Cys staples)?
Data returned: 0.0482

Data request: What measured PBM 8-mer E-score is associated with `CACATGAA` on 2Sp-muMax20 (muMax20 with two 2,6-bis(methyl)pyridine Cys staples)?
Data returned: 0.138

Data request: What measured PBM 8-mer E-score is associated with `TATAAAAA` on 2Sp-muMax20 (muMax20 with two 2,6-bis(methyl)pyridine Cys staples)?
Data returned: 0.307

Data request: What measured PBM 8-mer E-score is associated with `ACGATGGA` on 2Sp-muMax20 (muMax20 with two 2,6-bis(methyl)pyridine Cys staples)?
Data returned: -0.164

----------
System: 2Sp-muMax20 (muMax20 with two 2,6-bis(methyl)pyridine Cys staples)
Experiment: PBM 8-mer E-score (E-score (rank enrichment, -0.5 to 0.5)); higher = stronger preferential binding
Whole data set: some 33,000 sequences, median “E-score (rank enrichment, -0.5 to 0.5)” near -0.0043, cut for the highest 2% near 0.24. Shown is part of a subset that was picked to be rich in the highest values.
# PBM 8-mer E-score listing for each entry below
// no unit, no text: just the number

The examples below pair each entry with its known result.
SEQUENCE	MEASUREMENT NAME	NUMERIC VALUE
AAGGGGCT	PBM 8-mer E-score	0.271
CAATAATC	PBM 8-mer E-score	0.0969
CGCCCCAG	PBM 8-mer E-score	0.0339
ATCACCAC	PBM 8-mer E-score	0.276

Data request: Tell me the measured PBM 8-mer E-score of `ACATGCAG` , please.
Data returned: 0.0533

Data request: Tell me the measured PBM 8-mer E-score of `GCATGCGC` , please.
Data returned: 0.164

Data request: Tell me the measured PBM 8-mer E-score of `AAGGGGCG` , please.
Data returned: -0.00545

Data request: Tell me the measured PBM 8-mer E-score of `TGCCCCAA` , please.
Data returned: 0.274

Data request: Tell me the measured PBM 8-mer E-score of `TGCCCCCA` , please.
Data returned: -0.0389

Data request: Tell me the measured PBM 8-mer E-score of `ACATGCAC` , please.
Data returned: 0.0958

----------
Test system: 2Sp-muMax20 (muMax20 with two 2,6-bis(methyl)pyridine Cys staples)
Assay: PBM 8-mer E-score (E-score (rank enrichment, -0.5 to 0.5)); higher = stronger preferential binding
The full ranking holds about 33,000 sequences; the median of “E-score (rank enrichment, -0.5 to 0.5)” is about -0.0043, and the highest 2% start at about 0.24. Only a selection was taken, and the highest values are over-represented in it overall.
# PBM 8-mer E-score listing for each entry below

SEQUENCE	TESTED TARGET	PBM 8-mer E-score
GGATAAAA	2Sp-muMax20 (muMax20 with two 2,6-bis(methyl)pyridine Cys staples)	0.0526
CACGTGGA	2Sp-muMax20 (muMax20 with two 2,6-bis(methyl)pyridine Cys staples)	0.398
TACGTGGA	2Sp-muMax20 (muMax20 with two 2,6-bis(methyl)pyridine Cys staples)	0.0461
GCGTGGTA	2Sp-muMax20 (muMax20 with two 2,6-bis(methyl)pyridine Cys staples)	0.237
ATGTGAAA	2Sp-muMax20 (muMax20 with two 2,6-bis(methyl)pyridine Cys staples)	0.319
AACACATA	2Sp-muMax20 (muMax20 with two 2,6-bis(methyl)pyridine Cys staples)	0.257

Data request: What measured PBM 8-mer E-score is associated with `ATATTTAA` on 2Sp-muMax20 (muMax20 with two 2,6-bis(methyl)pyridine Cys staples)?
Data returned: 0.334

Data request: What measured PBM 8-mer E-score is associated with `AGGTGGTG` on 2Sp-muMax20 (muMax20 with two 2,6-bis(methyl)pyridine Cys staples)?
Data returned: -0.104

Data request: What measured PBM 8-mer E-score is associated with `ACGTGGTG` on 2Sp-muMax20 (muMax20 with two 2,6-bis(methyl)pyridine Cys staples)?
Data returned: 0.236

Data request: What measured PBM 8-mer E-score is associated with `ACGTGATG` on 2Sp-muMax20 (muMax20 with two 2,6-bis(methyl)pyridine Cys staples)?
Data returned: 0.244

Data request: What measured PBM 8-mer E-score is associated with `CATTCCTA` on 2Sp-muMax20 (muMax20 with two 2,6-bis(methyl)pyridine Cys staples)?
Data returned: 0.0858

Data request: What measured PBM 8-mer E-score is associated with `ACTCGGGC` on 2Sp-muMax20 (muMax20 with two 2,6-bis(methyl)pyridine Cys staples)?
Data returned: -0.209

Data request: What measured PBM 8-mer E-score is associated with `ACCGAAAA` on 2Sp-muMax20 (muMax20 with two 2,6-bis(methyl)pyridine Cys staples)?
Data returned: -0.0179

Data request: What measured PBM 8-mer E-score is associated with `CAAGTGTG` on 2Sp-muMax20 (muMax20 with two 2,6-bis(methyl)pyridine Cys staples)?
Data returned: 0.119

Data request: What measured PBM 8-mer E-score is associated with `CCAAGGTA` on 2Sp-muMax20 (muMax20 with two 2,6-bis(methyl)pyridine Cys staples)?
Data returned: -0.122

Data request: What measured PBM 8-mer E-score is associated with `GACGTGGC` on 2Sp-muMax20 (muMax20 with two 2,6-bis(methyl)pyridine Cys staples)?
Data returned: 0.0114

Data request: What measured PBM 8-mer E-score is associated with `GTATTTTA` on 2Sp-muMax20 (muMax20 with two 2,6-bis(methyl)pyridine Cys staples)?
Data returned: 0.0916

Data request: What measured PBM 8-mer E-score is associated with `ATAGACTC` on 2Sp-muMax20 (muMax20 with two 2,6-bis(methyl)pyridine Cys staples)?
Data returned: 0.154

Data request: What measured PBM 8-mer E-score is associated with `ATATAAAC` on 2Sp-muMax20 (muMax20 with two 2,6-bis(methyl)pyridine Cys staples)?
Data returned: 0.315

Data request: What measured PBM 8-mer E-score is associated with `AGTAGAAC` on 2Sp-muMax20 (muMax20 with two 2,6-bis(methyl)pyridine Cys staples)?
Data returned: 0.0268

Data request: What measured PBM 8-mer E-score is associated with `ATTAGAAA` on 2Sp-muMax20 (muMax20 with two 2,6-bis(methyl)pyridine Cys staples)?
Data returned: -0.0714

Data request: What measured PBM 8-mer E-score is associated with `AACGTGGG` on 2Sp-muMax20 (muMax20 with two 2,6-bis(methyl)pyridine Cys staples)?
Data returned: 0.1

Data request: What measured PBM 8-mer E-score is associated with `AACGTGGA` on 2Sp-muMax20 (muMax20 with two 2,6-bis(methyl)pyridine Cys staples)?
Data returned: 0.0553
